Tested on: HCV type 1b replicon
Assay: HCV replicon assay (Huh-Luc cells, luciferase readout)
Type: cell-based
Settings: Hepatitis C virus, 72 h; Huh-Luc replicon cells, HCV type 1b, three days incubation, luciferase activity; read-out: EC50 (μM) (HCV)
Text: The in vitro antiviral activity against HCV of the compounds of formula I can be tested in a cellular HCV replicon system based on Lohmann et al. (1999) Science 285:110-113, with the further modifications described by Krieger et al. (2001) Journal of Virology 75: 4614-4624 (incorporated herein by reference), which is further exemplified in the examples section. […]
parameter.measured: EC50 (µM)

[[record]]
molecule = "C[C@H](NP(=O)(OC[C@H]1O[C@@H](n2ccc(=O)[nH]c2=O)[C@@]2(CCO2)[C@@H]1O)Oc1ccccc1)C(=O)OCc1ccccc1 (stereo partly drawn) [Compound 12b]"
value_prefix = "="
result_value = 3.7

[[record]]
molecule = "CC[C@H](NP(=O)(OC[C@H]1O[C@@H](n2ccc(=O)[nH]c2=O)[C@@]2(CCO2)[C@@H]1O)Oc1ccccc1)C(=O)OCc1ccccc1 (stereo partly drawn) [Compound 12a]"
value_prefix = "="
result_value = 3.4

[[record]]
molecule = "CCCCOC(=O)[C@H](C)NP(=O)(OC[C@H]1O[C@@H](n2ccc(=O)[nH]c2=O)[C@@]2(CCO2)[C@@H]1O)Oc1ccccc1 (stereo partly drawn) [Compound 12d]"
value_prefix = "="
result_value = 5.5

[[record]]
molecule = "Cc1ccc(C(C)C)c(OP(=O)(N[C@@H](C)C(=O)OCc2ccccc2)OC[C@H]2O[C@@H](n3ccc(=O)[nH]c3=O)[C@@]3(CCO3)[C@@H]2O)c1 (stereo partly drawn) [Compound 12f]"
value_prefix = "="
result_value = 8.7

[[record]]
molecule = "O=C(CNP(=O)(OC[C@H]1O[C@@H](n2ccc(=O)[nH]c2=O)[C@@]2(CCO2)[C@@H]1O)Oc1ccc(Cl)cc1)OCc1ccccc1 (stereo partly drawn) [Compound 12m]"
value_prefix = "="
result_value = 7.17

[[record]]
molecule = "CC[C@H](NP(=O)(OC[C@H]1O[C@@H](n2ccc(=O)[nH]c2=O)[C@@]2(CCO2)[C@@H]1O)Oc1ccccc1)C(=O)OC(C)C (stereo partly drawn) [Compound 12i]"
value_prefix = ">"
result_value = 96

[[record]]
molecule = "CC(C)COC(=O)[C@H](C)NP(=O)(OC[C@H]1O[C@@H](n2ccc(=O)[nH]c2=O)[C@@]2(CCO2)[C@@H]1O)Oc1ccccc1 (stereo partly drawn) [Compound 12l]"
value_prefix = "="
result_value = 0.44

[[record]]
molecule = "C[C@H](NP(=O)(OC[C@H]1O[C@@H](n2ccc(=O)[nH]c2=O)[C@@]2(CCO2)[C@@H]1O)Oc1ccc(Cl)cc1)C(=O)OCc1ccccc1 (stereo partly drawn) [Compound 12j]"
value_prefix = "="
result_value = 0.7

[[record]]
molecule = "COC(=O)C(C)(C)NP(=O)(OC[C@H]1O[C@@H](n2ccc(=O)[nH]c2=O)[C@@]2(CCO2)[C@@H]1O)Oc1ccccc1 (stereo partly drawn) [Compound 12e]"
value_prefix = "="
result_value = 23.4

[[record]]
molecule = "C[C@H](NP(=O)(OC[C@H]1O[C@@H](n2ccc(=O)[nH]c2=O)[C@@]2(CCO2)[C@@H]1O)Oc1cccc2ccccc12)C(=O)OCc1ccccc1 (stereo partly drawn) [Compound 12k]"
value_prefix = "="
result_value = 2

[[record]]
molecule = "CC(C)OC(=O)[C@H](C)NP(=O)(OC[C@H]1O[C@@H](n2ccc(=O)[nH]c2=O)[C@@]2(CCO2)[C@@H]1O)Oc1ccccc1 (stereo partly drawn) [Compound 12g]"
value_prefix = "="
result_value = 17.8

[[record]]
molecule = "C[C@H](NP(=O)(OC[C@H]1O[C@@H](n2ccc(=O)[nH]c2=O)[C@@]2(CCO2)[C@@H]1O)Oc1ccccc1)C(=O)OCC(C)(C)C (stereo partly drawn) [Compound 12c]"
value_prefix = "="
result_value = 5.6

